Entry source: the supplement of paper PMC8092582

Quick reference for cell viability among some molecules
# System: HeLa
# METHOD NOTES: cell viability (CellTiter-Glo) relative to median of lowest-dilution wells of all drugs (fraction); higher = more viable cells
# CONDITIONS USED: drug concentration (unit not stated): 0.12; genotype: control (DDX11 wild type)
Structures can show the parent of a compound that is named as a salt.

MOLECULE	cell viability
COCC[n+]1c2c(n(Cc3cnccn3)c1C)C(=O)c1ccccc1C2=O [YM155 (Sepantronium bromide)]	0.0177
O=C(c1cc(Cc2n[nH]c(=O)c3ccccc23)ccc1F)N1CCN(C(=O)C2CC2)CC1 [Olaparib]	1.04
Nc1cc(C(F)(F)F)c(-c2cc(N3CCOCC3)nc(N3CCOCC3)n2)cn1 [Buparlisib (BKM-120)]	0.999
COc1ncc(-c2ccc3nccc(-c4ccnnc4)c3c2)cc1NS(=O)(=O)c1ccc(F)cc1F	0.528
O=c1cc(-c2cccc3c2Sc2ccccc2S3)oc(N2CCOCC2)c1	0.988
C=CCn1c(=O)c2cnc(Nc3ccc(N4CCN(C)CC4)cc3)nc2n1-c1cccc(C(C)(C)O)n1 [AZD1775]	0.951
CCN(CCO)CCCOc1ccc2c(Nc3cc(CC(=O)Nc4cccc(F)c4)[nH]n3)ncnc2c1 [AZD1152-HQPA (Barasertib)]	1.01
CC(C)C[C@H](NC(=O)[C@H](Cc1ccccc1)NC(=O)c1cnccn1)B(O)O [Bortezomib (Velcade)]	0.0235
N.N.[Cl][Pt][Cl] [Cisplatin]	0.885
COC1=CC(c2cc3ccccc3[nH]2)=N/C1=C\c1[nH]c(C)cc1C [Obatoclax mesylate]	1.05
Cc1sc2c(c1C)C(c1ccc(Cl)cc1)=N[C@@H](CC(=O)OC(C)(C)C)c1nnc(C)n1-2 [(+)-JQ-1]	0.962
COc1cc2c(cc1O)CCN[C@]21CS[C@@H]2c3c(OC(C)=O)c(C)c4c(c3[C@H](COC1=O)N1[C@@H]2[C@H]2c3c(cc(C)c(OC)c3O)C[C@@H]([C@@H]1O)N2C)OCO4 [Trabectedin (Yondelis)]	1.02
CCCCCCNC(=O)n1cc(F)c(=O)[nH]c1=O [Carmofur]	1.01
Nc1nc2[nH]cc(CCc3ccc(C(=O)N[C@@H](CCC(=O)O)C(=O)O)cc3)c2c(=O)[nH]1 [Pemetrexed]	0.98
CC[C@H](CO)Nc1nc(NCc2ccccc2)c2ncn(C(C)C)c2n1 [Seliciclib (Roscovitine)]	0.946
C[C@@H]1COCCN1c1cc(-c2ccnn2C)c2ccnc(-c3ccn[nH]3)c2n1	1.02
